Experiment: Quantitative High-Throughput drug screen in 47 multiple myeloma cell lines against the NCATS MIPE library collection: XG6_PLB cell viability assay (AID 1919865); further: nearly all actives have a fitted effect of over 40% in size; further: potency means the concentration at half of the fitted maximal effect
Conditions: XG6 myeloma viability, CellTiter-Glo ATP luminescence, 48 h; series mostly up to 45.8 µM
Records with an inconclusive call do not appear. Calls of active or inactive are those of the source. The call rests on the fitted dose curve; in most records, active means well fitted cell-killing curve with a large enough effect; inconclusive means small, poorly fitted or top-dose-only effect, or effect the other way; inactive means no such curve, though single readings can be large or run the other way. Non-standard residues stand in square brackets, D forms with d. Residues, ends and D or L forms follow the SMILES beside them. *: point of attachment. Nva = CCC[C@H](N)C(=O)O; Cbz = O=C(OCc1ccccc1)*

molecule: C[C@@H](Cc1cc2c(c(C(N)=O)c1)N(CCCO)CC2)NCCOc1ccccc1OCC(F)(F)F
Potency: inactive
//
molecule: CN(C)CCN1C(=O)c2cccc3cc(N)cc(c23)C1=O
Potency: 14.8 µM (active)
//
molecule: C#C[C@]1(O)CC[C@@H]2[C@@H]3CCC4=CC(=O)CC[C@@H]4[C@H]3CC[C@@]21CC
Potency: inactive
//
molecule: CCC[C@@H](C=O)NC(=O)[C@H](CC(C)C)NC(=O)[C@H](CC(C)C)NC(=O)OCc1ccccc1 (Cbz-Leu-Leu-[Nva]-aldehyde)
Potency: 0.264 µM (active)
//
molecule: O=C(C=Cc1ccc(CN(CCO)CCc2c[nH]c3ccccc23)cc1)NO
Potency: 0.235 µM (active)

----------
Test: qHTS of pediatric cancer cell lines to identify multiple opportunities for drug repurposing: Primary screen for Rh41 cells (AID 1347108); further: nearly all actives have a fitted effect of over 70% in size
Conditions: Rh41 rhabdomyosarcoma viability, CellTiter-Glo luminescence, 48 h; series mostly up to 46 µM
Records with an inconclusive call do not appear. Activity calls are given as the source filed them. Calls come from the whole dose curve; as a rule, active = well fitted cell-killing curve with a large enough effect; inconclusive = small, poorly fitted or top-dose-only effect; inactive = no such curve, though single readings can be large or run the other way.
Outcomes: active, inactive

compound: CS(=O)(=O)N1CCc2c(-c3cnc(N)nc3)nc(N3CCOCC3)nc21
assignedLabel: active
//
compound: COc1ccc(S(=O)(=O)Nc2cccnc2Nc2ccc(O)cc2)cc1
assignedLabel: active
//
compound: COc1cc2c(Nc3ccc(Cl)c(Cl)c3F)ncnc2cc1OCC1C[C@@H]2CN(C)C[C@H]2C1
assignedLabel: active
//
compound: CC1(C)O[C@@H]2C[C@H]3[C@@H]4CCC5=CC(=O)C=C[C@]5(C)[C@@H]4[C@@H](O)C[C@]3(C)[C@]2(C(=O)CO)O1
assignedLabel: inactive
//
compound: Oc1ccc([C@@H]2Oc3ccc(O)cc3[C@@H]3CCC[C@@H]32)cc1
assignedLabel: active
//
compound: COc1ccc(Nc2cc(-c3cnc(N)nc3)nc(N3CCOCC3)n2)cn1
assignedLabel: active
//
compound: C#C[C@]1(O)CC[C@@H]2[C@@H]3CCc4cc(O)ccc4[C@H]3CC[C@@]21C
assignedLabel: active
//
compound: Cn1cc(-c2cnn3c(N)c(Br)c([C@H]4CCCNC4)nc23)cn1
assignedLabel: active
//
compound: C[C@@H]1C(=O)O[C@H]2CC34[C@H]5C[C@@H](C(C)(C)C)C36[C@H](OC(=O)[C@@H]6O)O[C@@]4(C(=O)O5)[C@]21O (stereo partly drawn)
assignedLabel: inactive
//
compound: CC(=O)[C@]1(O)Cc2c(O)c3c(c(O)c2[C@@H](O[C@H]2C[C@H](N)[C@@H](O)[C@H](C)O2)C1)C(=O)c1ccccc1C3=O
assignedLabel: active
//
compound: CC(=O)NCC(=O)N1[C@H]2CC[C@H]1c1cc(Nc3ncc(C(F)(F)F)c(NC4CCC4)n3)ccc12
assignedLabel: active
//
compound: NC(=O)N1CCC(CC(=O)N2CCC([C@H]3c4ncc(Br)cc4CCc4cc(Cl)cc(Br)c43)CC2)CC1
assignedLabel: active
//
compound: CC(C)(O)CC[C@@H](O)[C@](C)(O)[C@H]1CC[C@@]2(O)C3=CC(=O)[C@@H]4C[C@@H](O)[C@@H](O)C[C@]4(C)[C@@H]3CC[C@]12C
assignedLabel: inactive
//
compound: CCC(C=C[C@@H]1OC(=O)C=C[C@H]1C)=C[C@H](C)CC=CC(C)=C[C@@H](C)C(=O)[C@@H](C)[C@H](O)[C@@H](C)CC(C)=CC(=O)O
assignedLabel: active
//
compound: C[C@H](O)[C@@H]1C(=O)N2C(C(=O)O)=C(S[C@@H]3CN[C@H](CNS(N)(=O)=O)C3)[C@@H](C)[C@@H]12
assignedLabel: inactive
//
compound: C[C@H](NCc1ccc(OCc2cccc(F)c2)cc1)C(N)=O
assignedLabel: active
//
compound: O=C1NC(O)CCN1[C@@H]1O[C@H](CO)[C@H](O)[C@H]1O (stereo partly drawn)
assignedLabel: inactive
//
compound: C[C@@H]1[C@H](C)CC[C@]2(C(=O)O)CC[C@]3(C)C(=CC[C@@H]4[C@@]5(C)C[C@@H](O)[C@H](O)[C@@](C)(CO)[C@H]5CC[C@]43C)[C@@H]12
assignedLabel: inactive
//
compound: O=C1c2cccc(O)c2C(=O)c2c(O)cc(CO)cc21
assignedLabel: inactive
//
compound: CC(=O)OCC(=O)[C@@]12N=C(C)O[C@H]1C[C@H]1[C@@H]3CCC4=CC(=O)C=C[C@]4(C)[C@@H]3[C@@H](O)C[C@@]12C
assignedLabel: inactive
//
compound: CC(C)(C)c1nc2c3cc[nH]c(=O)c3c3cc(F)ccc3c2[nH]1
assignedLabel: inactive
//
compound: OC[C@@H](O)[C@@H](O)[C@H](O)[C@@H](O)CO
assignedLabel: inactive
//
compound: C=C1C[C@@]2(O)O[C@@]3(C[C@H]2C(C)C)[C@H](C)CC[C@H]13
assignedLabel: inactive
//
compound: COc1cc(N2CCC(C(N)=O)CC2)ccc1Nc1nc(N)c(Cl)c(Nc2ccccc2S(=O)(=O)C(C)C)n1
assignedLabel: active
//
compound: C[C@H]1C[C@H]2[C@@H]3CCC4=CC(=O)C=C[C@]4(C)[C@@H]3C(=O)C[C@]2(C)[C@@]1(O)C(=O)CO
assignedLabel: inactive
//
compound: CN[C@@H]1C[C@H]2O[C@@](C)([C@H]1OC)n1c3ccccc3c3c4c(c5c6ccccc6n2c5c31)C(=O)N[C@H]4O
assignedLabel: active
//
compound: Cc1ccc([N+](=O)[O-])cc1S(=O)(=O)N(C)N=Cc1cnc2ccc(Br)cn12
assignedLabel: active
//
compound: O=c1[nH]c(=O)n([C@H]2C[C@@H](O)[C@@H](CO)O2)cc1F
assignedLabel: active
//
compound: CC(=O)O[C@H]1C[C@@H]2CC[C@H]3[C@H]4C[C@H]([N+]5(C)CCCCC5)[C@@H](OC(C)=O)[C@@]4(C)CC[C@@H]3[C@@]2(C)C[C@H]1[N+]1(C)CCCCC1
assignedLabel: inactive
//
compound: Oc1cc2c(cc1O)C1c3ccc(O)c(O)c3OCC1(O)C2 (stereo not drawn)
assignedLabel: inactive
//
compound: C[C@@H](Oc1ccc2[nH]nc(C=Cc3cnn(CCO)c3)c2c1)c1c(Cl)cncc1Cl
assignedLabel: active
//
compound: CCC(C(=O)O)C1CCC(C)C(C(C)C(O)C(C)C(=O)C(CC)C2OC3(C=CC(O)[C@@]4(CC[C@](C)(C5CC[C@@](O)(CC)C(C)O5)O4)O3)C(C)CC2C)O1 (stereo partly drawn)
assignedLabel: active
//
compound: C[C@@H](Cc1cc2c(c(C(N)=O)c1)N(CCCO)CC2)NCCOc1ccccc1OCC(F)(F)F
assignedLabel: inactive

----------
Tested on: MKL-2
Test: qHTS assay to identify novel small-molecules to repurpose for Merkel cell carcinoma treatment (AID 1296009); further: nearly all actives have a fitted effect of over 60% in size; further: potency means the concentration at half of the fitted maximal effect
Details: MCC and control cell lines, CellTiter-Glo viability, 72 h; series mostly up to 46 µM
Inconclusive results are not listed. Activity calls are given as the source filed them. Calls come from the whole dose curve; as a rule, active = well fitted inhibition curve with a large enough effect; inconclusive = small, poorly fitted or top-dose-only effect; inactive = flat fitted curve, though single readings scatter. Positions of bridges follow the written chain, without caps; N, C: chain ends. Non-standard residues stand in square brackets, D forms with d. Residues, ends and D or L forms follow the SMILES beside them. ξ: configuration not given here. *: point of attachment. Octanoyl(6-Me) = CCC(C)CCCCC(=O)*; ξThr(3R) = C[C@@H](O)C(N)C(=O)O; dDab = NCC[C@@H](N)C(=O)O; Dab = NCC[C@H](N)C(=O)O

compound: CCC(C)CCCCC(=O)N[C@@H](CCN)C(=O)NC(C(=O)N[C@H](CCN)C(=O)N[C@@H]1CCNC(=O)C([C@@H](C)O)NC(=O)[C@@H](CCN)NC(=O)[C@@H](CCN)NC(=O)[C@@H](CC(C)C)NC(=O)[C@H](Cc2ccccc2)NC(=O)[C@H](CCN)NC1=O)[C@@H](C)O (stereo partly drawn) ({Octanoyl(6-Me)}-[Dab][ξThr(3R)][dDab][dDab][Dab]F[dL][dDab][dDab][ξThr(3R)]; lactam 4-C)
assayedSystem: MKL-2
Potency: inactive

compound: Cn1cnc(=N)c2[nH]cnc21
assayedSystem: MKL-2
Potency: 0.209 µM (active)

compound: C#C[C@]1(O)CC[C@@H]2[C@@H]3CCC4=CC(=O)CC[C@@H]4[C@H]3CC[C@@]21CC
assayedSystem: MKL-2
Potency: inactive

compound: O=C(Nc1cccc(Nc2ncc(Br)c(NCCc3cnc[nH]3)n2)c1)N1CCCC1
assayedSystem: MKL-2
Potency: 5.9 µM (active)

compound: CN(C)CCN1C(=O)c2cccc3cc(N)cc(c23)C1=O
assayedSystem: MKL-2
Potency: 18.7 µM (active)

compound: COc1ccnc2[nH]cc(C(=O)C(=O)N3CCN(C(=O)c4ccccc4)C[C@@H]3C)c12
assayedSystem: MKL-2
Potency: inactive

compound: CO[C@@H]1[C@@H](O)[C@H](O)[C@@H](n2c3c(Cl)cccc3c3c4c(c5c6cccc(Cl)c6[nH]c5c32)C(=O)NC4=O)O[C@@H]1CO
assayedSystem: MKL-2
Potency: 0.935 µM (active)
